Source: patent US7674816B2

A collection of compounds and their measured pIC50
- measured.target: GABAA Cl channel
- run.description: GABAA Cl channel binding constant determination (3H-TBOB, increasing concentration, Hill plots)
- protocol.conditions: bovine hippocampus
pIC50: −log10 of the molar value.
measurement.label: pIC50

In [3]: df
Out[3]:
                                   compound   measured_target  measurement_label  observed_value
0  COc1ccc2[nH]c(-c3ccc(F)cc3)c(CCNC(C)=O)c2c1 [drawing 19]  GABAA Cl channel              pIC50            4.55
1  CC(C)c1cccc(C(C)C)c1O [drawing 16, reference compound]  GABAA Cl channel              pIC50            5.31
2  COc1ccc2[nH]c(-c3ccc(C(F)(F)F)cc3)c(CCNC(C)=O)c2c1 [drawing 20]  GABAA Cl channel              pIC50            4.88
3  COc1ccc2[nH]c(-c3ccccc3)c(CCNC(C)=O)c2c1 [drawing 18]  GABAA Cl channel              pIC50            3.97
4  COc1ccc(-c2[nH]c3ccc(OC)cc3c2CCNC(C)=O)cc1 [drawing 23]  GABAA Cl channel              pIC50            4.70
5  COc1ccc2[nH]c(-c3ccc(C)cc3)c(CCNC(C)=O)c2c1 [drawing 21]  GABAA Cl channel              pIC50            4.47
